Assay Notes: BSK_hDFCGF_SRB: Viability Assessment in the BioMAP Diversity Plus: hDFCGF Assay (AID 2283061);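 further: cells exposed to compound for 24 h before the read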
Measurement Parameters: primary human foreskin fibroblasts
The source made the active and inactive calls. How the source made its calls: active means hit-call score of the fitted dose curve at least 0.9, where 1 is the maximum; inactive means score below 0.9.
Hi there, use one of these labels in your reply, thanks! active, inactive

Use these answered entries as a reference point.
- Compound: "CCC(C)N(C)C(=O)c1cc2ccccc2c(-c2ccccc2Cl)n1 (stereo not given)"
  Category: "inactive"
- Compound: "O=C(NS(=O)(=O)/C=C/c1cccs1)c1ccc(F)cc1Br"
  Category: "inactive"
- Compound: "COC(=O)CCCC(=O)OC"
  Category: "inactive"
- Compound: "S=c1[nH]c2ccccc2s1"
  Category: "inactive"
- Compound: "C/C=C/C=C/C(=O)O"
  Category: "inactive"
- Compound: "CC(=O)OC1CC(C)OC(C)O1 (stereo not given)"
  Category: "inactive"
- Compound: "CCCCOC(=O)CCCCC(=O)OCCCC"
  Category: "inactive"
- Compound: "CCCCCCC(CCCCCCCCCCC(=O)OCC(COC(C)=O)OC(C)=O)OC(C)=O (stereo not given)"
  Category: "inactive"

# outcome recorded in this test, key = `CC(C)c1cccc(C(C)C)c1NC(=O)NS(=O)(=O)c1cc(C(C)(C)O)co1`
inactive

# outcome recorded in this test, key = `CC(=O)[C@@]1(O)CC[C@H]2[C@@H]3CCC4=CC(=O)CC[C@]4(C)[C@H]3CC[C@@]21C`
inactive

# outcome recorded in this test, key = `O=C(O)CC(O)(CC(=O)O)C(=O)O`
inactive

# outcome recorded in this test, key = `O=NO`
inactive

# outcome recorded in this test, key = `CS(=O)(=O)c1ccc([C@@H](C[C@H]2CCC(=O)C2)C(=O)Nc2cnccn2)cc1Cl`
inactive
